# kon listing for each entry below
Target: T1, PD-1 molecule (refolded, purified and biotinylated PD-1 of Example 2) (UniProt Q15116 33-150, biotinylated with BirA enzyme (site not stated))
T1 construct: also called Programmed Death-1
T1 sequence (Q15116 33-150 limits assumed): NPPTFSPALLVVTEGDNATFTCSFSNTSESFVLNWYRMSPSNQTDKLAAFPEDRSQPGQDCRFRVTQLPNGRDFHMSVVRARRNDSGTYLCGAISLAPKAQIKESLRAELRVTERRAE
Experiment: SPR (BIAcore T200), single-cycle kinetics; biotinylated PD-1 captured via streptavidin, PDL-1 variant in solution
Give your result in M⁻¹ s⁻¹ as a bare value.

// kon value for high affinity PDL-1 molecule L22A5 (ligand) FTVTVPKDLYVVEYGSNMTIECKFPVEKQLDLAALQVHWFMEDKNIPSFVHGEEDLKVQHSSYRQRARLLKDQLSLGNAALQITDVKLQDAGVYRCMISYGGADYKRITVKVNAPYNKINQRILVVDPVTSEHELTCQAEGYPKAEVIWTSSDHQVLSGKTTTTNSKREEKLFNVTSTLRINTTTNEIFYCTFRRLDPEENHTAELVIPEL : 11500

Now look at this one.
Looking up high affinity PDL-1 molecule L3C7b (ligand) FTVTVPKDLYVVEYGSNMTIECKFPVEKQLDLAALEVHWFMEDKNIFSFVHGEEDLKVQHSSYRQRARLLKDQLSLGNAALQITDVKLQDAGVYVCLIGYKGADYKRITVKVNAPYNKINQRILVVDPVTSEHELTCQAEGYPKAEVIWTSSDHQVLSGKTTTTNSKREEKLFNVTSTLRINTTTNEIFYCTFRRLDPEENHTAELVIPEL , I found its kon recorded as 143000

These entries and their values trace back to patent US20180291081A1.
